This collection of values is drawn from paper PMC5983862.

molecular target: neonatal Fc receptor (FcRn) α-chain, extracellular domain (FcRnECD) (Homo sapiens, UniProt P55899+P61769); construct: gene FCGRT; extracellular domain (ECD) (amino acids 1–297) of human FcRn α-chain, with human β2m; with β2-microglobulin (β2m, B2M); assay: affinity measurement (SPR implied); assay type: binding
Sequence (P55899 24-297): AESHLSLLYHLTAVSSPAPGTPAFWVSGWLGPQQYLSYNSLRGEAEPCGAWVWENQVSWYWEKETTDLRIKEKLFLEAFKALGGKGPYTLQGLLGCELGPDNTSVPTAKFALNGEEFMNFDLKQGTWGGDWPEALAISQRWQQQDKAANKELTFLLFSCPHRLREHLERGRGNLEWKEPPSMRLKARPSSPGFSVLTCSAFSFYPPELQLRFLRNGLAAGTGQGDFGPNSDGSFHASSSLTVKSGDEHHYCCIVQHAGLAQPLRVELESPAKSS
Sequence (P61769 21-119): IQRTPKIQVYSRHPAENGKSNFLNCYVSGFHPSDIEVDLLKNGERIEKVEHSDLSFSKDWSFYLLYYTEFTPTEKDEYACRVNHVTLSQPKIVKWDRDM
QUANTITY_NAME: pKd
Remember, pKd is on a log scale: it is -log10 of the molar concentration.

-- ask Look up pKd for this compound: CC(=O)C1=C(C)Nc2ncnn2C1c1cc(F)cc(F)c1 (racemic)
-- reply 5.62
